- assayComment: Cytotoxicity in MT4 cells (mock-infected) in the antiviral assay
- Assay type: cell-based
- conditionContext: human, MT4 cells (mock-infected); MT4 cells, 5 days incubation, CellTiter-Glo; average over time; read-out: CC50 nM in MT-4
propertyMeasured: CC50 at 5 days (nM)

> print(dat)
                               smilesstring  propertymeasured  unittag  resultnumber
1  C[C@@]12CCC[C@]3(Cn4cc(C(=O)NCc5c(F)cc(F)cc5F)c(=O)c(O)c4C(=O)N3C1)C2    CC50 at 5 days       nM          8660
2  C[C@@H](NC(=O)c1cn2c(c(O)c1=O)C(=O)N1C3CCC1(CC3)C2)c1c(F)cc(F)cc1F    CC50 at 5 days       nM         13200
3  O=C(NCc1ccc(F)cc1F)c1cn2c(c(O)c1=O)C(=O)N1C[C@H]3C[C@]1(C2)C3    CC50 at 5 days       nM         49900
4  O=C(NCc1c(F)cc(F)cc1F)c1cn2c(c(O)c1=O)C(=O)N1C3CCC1(CC3)C2    CC50 at 5 days       nM         24000
5  O=C(NCc1ccc(F)cc1F)c1cn2c(c(O)c1=O)C(=O)N1C[C@H]3CCC[C@@]1(C3)C2    CC50 at 5 days       nM          9660
6  O=C(NCc1ccc(F)cc1F)c1cn2c(c(O)c1=O)C(=O)N1C[C@@H]3CC[C@]1(C3)C2    CC50 at 5 days       nM         24000
7  O=C(NCc1ccc(F)cc1F)c1cn2c(c(O)c1=O)C(=O)N1C[C@H]3CC[C@@]1(C3)C2    CC50 at 5 days       nM         27900

---

- assayComment: Cytotoxicity in MT4 cells (mock-infected) in the antiviral assay
- Format: cell-based
- conditionContext: human, MT4 cells (mock-infected); MT4 cells, 5 days incubation, CellTiter-Glo; average over time; read-out: CC50 nM in MT-4
Recorded log10 CC50 at 5 days values for a group of compounds are listed next.
propertyMeasured: log10 CC50 at 5 days (log10 of the value in nM)

> print(dat)
                                   compound  resultnumber
1  O=C(NCc1cccc(Cl)c1F)c1cn2c(c(O)c1=O)C(=O)N1C[C@H]3CCC[C@@]1(C3)C2 [Compound 8]          3.72
2  O=C(NCc1ccc(F)cc1F)c1cn2c(c(O)c1=O)C(=O)N1C[C@H]3CC[C@@]1(CC3)C2 [Compound 2]          4.73
3  O=C(NCc1ccc(F)cc1F)c1cn2c(c(O)c1=O)C(=O)N1C[C@@H]3CCC[C@]1(C3)C2 [Compound 4]          4.04
4  O=C(NCc1c(F)cc(F)cc1F)c1cn2c(c(O)c1=O)C(=O)N1C[C@H]3CCC[C@@]1(C3)C2 [Compound 7]          4.11
5  O=C(NCc1c(F)cc(F)cc1F)c1cn2c(c(O)c1=O)C(=O)N1C[C@@H]3CC[C@]1(C3)C2 [Compound 13]          4.39
6  O=C(NCc1c(F)cc(F)cc1F)c1cn2c(c(O)c1=O)C(=O)N1C[C@H]3CC[C@@]1(C3)C2 [Compound 12]          4.73
7  O=C(NCc1c(F)cc(F)cc1F)c1cn2c(c(O)c1=O)C(=O)N1C[C@@H]3CCC[C@]1(C3)C2 [Compound 5]          4.03

Cited source for all entries: patent US12521388B2
